B1: ZNF449 (parent)
chain: HTGERPYECTVCKKRFTRRSHLIG

Variants of: B1
procedure_text: protein stability index of a GFP-peptide fusion (GPS, HEK-293T) (PSI 1-6); higher = more stable;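 note: lentivirally expressed fusions sorted by FACS into six bins by GFP to DsRed ratio, PSI derived from sequencing read proportions per bin multiplied by bin number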
condition_description: c terminus: a fixed tail appended
observation_type: protein stability index
Answer using only a numeral; do not append any unit.

Qu. Looking for the measured protein stability index of K14G , can you help?
Ans. 1.44

Qu. Looking for the measured protein stability index of K14A , can you help?
Ans. 1.89

Qu. Looking for the measured protein stability index of E4G , can you help?
Ans. 1.55

Qu. Looking for the measured protein stability index of L22R , can you help?
Ans. 3.15

Qu. Looking for the measured protein stability index of R5W , can you help?
Ans. 2

Qu. Looking for the measured protein stability index of S20L , can you help?
Ans. 2.44

Qu. Looking for the measured protein stability index of C9P , can you help?
Ans. 3.7

Qu. Looking for the measured protein stability index of E4M , can you help?
Ans. 2.24

Qu. Looking for the measured protein stability index of V11H , can you help?
Ans. 2.99

Qu. Looking for the measured protein stability index of L22D , can you help?
Ans. 2.6

Qu. Looking for the measured protein stability index of E8N , can you help?
Ans. 1.79

Qu. Looking for the measured protein stability index of K13D , can you help?
Ans. 2.91

Qu. Looking for the measured protein stability index of P6G , can you help?
Ans. 2.77

Qu. Looking for the measured protein stability index of K13F , can you help?
Ans. 2

Qu. Looking for the measured protein stability index of R15T , can you help?
Ans. 2.52

Qu. Looking for the measured protein stability index of G3M , can you help?
Ans. 2.38

Qu. Looking for the measured protein stability index of G24N , can you help?
Ans. 2.39

Qu. Looking for the measured protein stability index of G3R , can you help?
Ans. 1.73

Qu. Looking for the measured protein stability index of H21C , can you help?
Ans. 2.1

Qu. Looking for the measured protein stability index of R18G , can you help?
Ans. 2.12

Qu. Looking for the measured protein stability index of R5L , can you help?
Ans. 2.09

Qu. Looking for the measured protein stability index of H1G , can you help?
Ans. 1.83
